- Tested on: PBMC
- assay.remarks: Immunosuppressive activity in human PBMC assessed as inhibition of LPS-stimulated IL2 production at 10 ug/mL after 18 to 24 hrs by ELISA
- Type: functional
The source made the active and inactive calls. No cut-off for these calls is given here.

molecule: CC(=O)OC[C@]12[C@H](OC(C)=O)[C@H](OC(C)=O)[C@@H]3[C@@H](OC(=O)c4ccccc4)[C@@]14O[C@@]3(C)COC(=O)c1cccnc1C(C)C(C)C(=O)O[C@@H]([C@H](O)[C@@H]2OC(C)=O)[C@]4(C)O (some centres undefined)
assay.target: PBMC
inhibition: inactive
--
molecule: CC(=O)OC[C@]12[C@H](OC(C)=O)[C@H](OC(C)=O)[C@@H]3[C@@H](OC(=O)c4ccccc4)[C@@]14O[C@@]3(C)COC(=O)c1cnccc1C(C)C(C)(O)C(=O)O[C@@H]([C@H](OC(=O)c1ccccc1)[C@@H]2OC(C)=O)[C@]4(C)O (some centres undefined)
assay.target: PBMC
inhibition: inactive
--
molecule: CC(=O)OC[C@]12[C@H](OC(C)=O)C(=O)[C@@H]3[C@@H](OC(C)=O)[C@@]14O[C@@]3(C)COC(=O)c1cccnc1CC[C@@](C)(O)C(=O)O[C@@H]([C@H](OC(C)=O)[C@@H]2OC(C)=O)[C@]4(C)O
assay.target: PBMC
inhibition: inactive
--
molecule: CC(=O)OC[C@]12[C@H](OC(C)=O)[C@H](OC(C)=O)[C@@H]3[C@@H](OC(C)=O)[C@@]14O[C@@]3(C)COC(=O)c1cccnc1CC[C@@](C)(OC(=O)c1ccco1)C(=O)O[C@@H]([C@H](OC(C)=O)[C@@H]2OC(C)=O)[C@]4(C)O
assay.target: PBMC
inhibition: inactive
